- Tested on: murine macrophages RAW 264.7
- appliedConditions: 24 h
- Experimental: Cytotoxicity against human immortalized keratinocytes HaCaT, human alveolar basal epithelial A549 (derived from adenocarcinoma), and murine macrophages RAW 264.7 was tested using MTT [3-(4,5-dimethylthiazol-2-yl)-2,5-diphenyltetrazolium bromide] assay. […] After 4 h of incubation, acidified isopropanol was added to dissolve formazan crystals and measured for OD570 using Tecan microplate reader Infinite M200 (Salzburg, Austria).
pIC50: −log10 of the molar value. Ends that are not written are not given here.
Each entry below carries its recorded pIC50.
observationType: pIC50

>  <substance>
KKKKLKKILKKLFQFINQLDNQLQDIKKKK-NH2 [LP18]

>  <system>
murine macrophages RAW 264.7

>  <observationType>
pIC50

>  <dataValue>
4.60

$$$$
>  <substance>
KKKKLKKILKKLFQFIQQLDQQLQDIKQQK-NH2 [LP35]

>  <system>
murine macrophages RAW 264.7

>  <observationType>
pIC50

>  <dataValue>
4.44

$$$$
>  <substance>
KKKKLKKILKKLFQFINQLDNQLQDIKQNK-NH2 [LP1]

>  <system>
murine macrophages RAW 264.7

>  <observationType>
pIC50

>  <dataValue>
4.36

$$$$
>  <substance>
H-KKKKKLKKILKKLFQFINQLDNQLQDIKKKKK-OH [LP28]

>  <system>
murine macrophages RAW 264.7

>  <observationType>
pIC50

>  <dataValue>
4.51

$$$$

----------
- Tested on: Caki-1
- test: cells
- Assay type: cell-based
- appliedConditions: Homo sapiens, Kidney, DMEM + 10% FCS, 72 hours
- Description: The CellTiter-Glo luminescent cell viability assay examining the impact of peptides on 22 different human cell lines was purchased from Reaction Biology Europe GmbH (Germany). […] After 72 h of incubation at 37 °C, 5 or 10% CO2 (dependent on the medium), and 1 h equilibration at room temperature, well plates were treated with CellTiter-Glo reagent (Promega) for an hour and luminescence was measured using a luminometer. […]
pIC50: −log10 of the molar value.

>  <smilesData>
CC(C)C[C@H](NC(=O)[C@H](Cc1ccccc1)NC(=O)c1cnccn1)B(O)O

>  <pIC50>
7.92

$$$$

----------
Entries annotated with measured IC50
Ends that are not written are not given here.
observationType: IC50 (µM)

>  <substance>
HHHHLKKILKKLFQFINQLDNQLQDIHHHH [LP40]

>  <observationType>
IC50

>  <readingQualifier>
>

>  <dataValue>
70

$$$$
>  <substance>
KKKKIKKIIKKIFQFINQIDNQIQDIKQNK-NH2 [LP33]

>  <observationType>
IC50

>  <readingQualifier>
=

>  <dataValue>
27

$$$$

----------
Documented MIC across a set of substances
- Tested on: E. coli (TOP10)
- test: Broth microdilution antimicrobial susceptibility assay
- Format: cell-based, Escherichia coli
- appliedConditions: 24 h, MHB
Ends that are not written are not given here.

>  <substance>
H-HHHHLKKILKKLFQFINQLDNQLQDIHHHH-OH [LP40]

>  <readingQualifier>
>

>  <MIC (µM)>
50

$$$$
>  <substance>
RRRRLKKILKKLFQFINQLDNQLQDIRQNR-NH2 [LP39]

>  <readingQualifier>
=

>  <MIC (µM)>
0.4

$$$$
>  <substance>
KKKKLKKILKKLFQFIDQLINDLQNIKKKK-NH2 [LP20]

>  <readingQualifier>
=

>  <MIC (µM)>
1.6

$$$$
>  <substance>
KKKKLKKILKKLWQWINQLDNQLQDIKQNK-NH2 [LP3]

>  <readingQualifier>
=

>  <MIC (µM)>
0.4

$$$$
